Origin of measurements: patent US20230303681A1

Target: T1, human TMEM106B (human, UniProt Q9NUM4 2-274)
T1 construct: Full-length, on transiently transfected HEK293 cells, or natively expressed on HeLa, U251 and A549 cells; also called huTMEM106B; huTMEM
Assay: FACS HEK+huTMEM, 1.0 ug/ml

- binder: "anti-TMEM106B antibody TM-4 (antibody, V domains shown) VH: EVQVQQSGPVLVKPGASVKMSCKASGYTFTDYYMNWVKQSHGKNLEWIGVINPYNGGTSYHQKFKGKATLTVDKSSSTAYMELNSLTSEDSAVYYCARAATVVAGFDYWGQGTTLTVSS VL: QAVVTQESALTTSPGETVTLTCRSSTGAVTTSNYANWVQEKPDHLFTGLIGGTNNRAPGVPARFSGSLIGDKAALTITGAQTEDEAIYFCVLWYSNHLVFGGGTKLTVL"
  MFI: 415
- binder: "anti-TMEM106B antibody TM-32 (antibody, V domains shown) VH: EVQLQQSGAELVRPGASVRLSCIASGFNIKDYYMYWVKQRPEQGLEWIGRIDPEDGDTEYVPKFQGKATMTADTSSNTAYLQLSSLTSEDIGVYYCTTRTWDLYYAVDNWGQGTSVTVSS VL: DVLMTQTPLSLPVSLGDQASISCRSSQNIVHSNGNTYLEWYLQKPGQSPKLLIDKVSNRFSGVPDRFSGSGSGTDFTLKISRVEAEDLGIYYCFQGSHVPFTFGSGTKLEIK"
  MFI: 63300
- binder: "anti-TMEM106B antibody TM-21 (antibody, V domains shown) VH: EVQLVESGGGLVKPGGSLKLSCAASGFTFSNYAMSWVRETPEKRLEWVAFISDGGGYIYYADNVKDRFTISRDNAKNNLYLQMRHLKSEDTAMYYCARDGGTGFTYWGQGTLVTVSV VL: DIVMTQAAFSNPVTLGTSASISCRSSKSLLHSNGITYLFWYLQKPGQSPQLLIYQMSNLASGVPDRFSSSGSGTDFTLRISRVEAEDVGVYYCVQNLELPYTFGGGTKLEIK"
  MFI: 69400
- binder: "anti-TMEM106B antibody TM-16 (antibody, V domains shown) VH: EVQLQQSGAELVRPGASVKLSCTTSGFNIKDYYMHWVKQRTEQGLEWIGRIDPEDGETKYAPEFQGKATITSDTSSNTAFLQLSSLTSEDTAVYYCASSQPFTYWGQGTLVTVSA VL: QIVLTQSPAIMSASPGEKLTMTCSASSSLNYMYWYQQKPGSSPRLLIYDTSNLASGVPVRFSGSGSGTSYSLTISRMEAEDGATYYCQQWTSFPPTFGAGTKLELK"
  MFI: 2140
- binder: "anti-TMEM106B antibody TM-8 (antibody, V domains shown, mouse IgG from hybridoma) VH: QIQLVQSGPELKKPGETVKISCKASGYTFTDYPMHWVKQAPGKGFKWMGVIYTDTGEPKYAEVFKGRFAFSLETSASTAYLQINNLKNEDTATYFCVRRLAYWGQGTLVTVSA VL: DIKMTQSPSSMYASLGERVTITCKASQDINSYLSWFQQKPGKSPKTLIFRANRLVDGVPSRFSGSGSGQDYSLTISSLEYEDMGIYYCLQYDEFPLTFGAGTKLEMK"
  MFI: 317
